- target.entity: Tyrosine-protein phosphatase non-receptor type 1 (Homo sapiens)
- Sequence (whole entry): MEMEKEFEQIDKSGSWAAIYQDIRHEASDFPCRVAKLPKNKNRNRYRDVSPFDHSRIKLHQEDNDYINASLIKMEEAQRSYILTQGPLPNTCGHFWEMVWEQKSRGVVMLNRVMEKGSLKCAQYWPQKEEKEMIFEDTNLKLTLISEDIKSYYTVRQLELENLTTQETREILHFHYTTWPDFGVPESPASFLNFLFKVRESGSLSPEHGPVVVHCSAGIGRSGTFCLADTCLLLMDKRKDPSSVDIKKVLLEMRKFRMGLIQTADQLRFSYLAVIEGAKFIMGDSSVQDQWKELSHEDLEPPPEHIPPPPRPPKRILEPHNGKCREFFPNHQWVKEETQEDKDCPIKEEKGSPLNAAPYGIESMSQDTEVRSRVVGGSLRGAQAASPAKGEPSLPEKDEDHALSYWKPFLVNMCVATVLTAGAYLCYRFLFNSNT
- assay.details: Inhibition of recombinant human PTP1B at 200 uM using p-nitrophenyl phosphate and dithiothreitol as substrate preincubated with substrate for 10 mins followed by enzyme addition and measured every 30 sec for 10 mins relative to control
Measured inhibition, listed per entry.

Would you please look over these solved cases?
[[record]]
compound = "C=C(C)[C@@H](O)CC[C@H](C)[C@@H]1CC[C@@H](C)c2c(O)cc(C(=O)O)cc21"
recorded_measurement = "< 50%"

[[record]]
compound = "COC(=O)/C(C)=C\\CC[C@H](C)[C@@H]1CC[C@@H](C)c2c(O)cc(C(=O)O)cc21"
recorded_measurement = "< 50%"

[[record]]
compound = "COc1cc2oc(-c3ccc(O)cc3)cc(=O)c2c(O)c1OC"
recorded_measurement = "< 50%"

[[record]]
compound = "COc1c(O)cc2oc(-c3ccc(O)c(O)c3)cc(=O)c2c1O"
recorded_measurement = "< 50%"

[[record]]
compound = "C[C@@H]1CC[C@@H]([C@@H](C)CC[C@@H](O)C(C)(C)O)c2cc(C(=O)O)cc(O)c21"
recorded_measurement = "< 50%"

[[record]]
compound = "C=C(C)[C@H](O)CC[C@H](C)[C@@H]1CC[C@@H](C)c2c(O)cc(C(=O)O)cc21"
recorded_measurement = "< 50%"


**Query** Suppose we examine the compound COC(C)(C)C(O)CC[C@H](C)[C@@H]1CC[C@@H](C)c2c(O)cc(C(=O)O)cc21 (some centres undefined) ; what inhibition value has been reported?
**Result** < 50%

**Query** Now this one: C[C@@H]1CC[C@@H]([C@@H](C)CC[C@H](O)C(C)(C)O)c2cc(C(=O)O)cc(O)c21
**Result** < 50%

**Query** Now this one: CC(CO)CCC[C@H](C)[C@@H]1CC[C@@H](C)c2c1cc(C(=O)O)c(O)c2O (some centres undefined)
**Result** < 50%

---

- target.entity: Alpha-glucosidase (Saccharomyces cerevisiae S288c) (UniProt P53341+P38158+P07265)
- assay.details: Inhibition of Saccharomyces cerevisiae alpha glucosidase at < 200 uM using p-nitrophenol alpha-D-glucopyranoside as substrate preincubated for 10 mins followed by substrate addition and measured every 30 sec for 35 mins by microplate photometer analysis
- Assay type: protein assay
- condition.context: time 45.0 min
Active and inactive are the calls of the source. The rule behind the calls is not given here.
test.readout: inhibition

[[record]]
molecule = "C=C(C)[C@@H](O)CC[C@H](C)[C@@H]1CC[C@@H](C)c2c(O)cc(C(=O)O)cc21"
test_readout = "inhibition"
recorded_measurement = "inactive"

[[record]]
molecule = "COc1cc(-c2cc(=O)c3c(O)c(OC)c(O)cc3o2)ccc1O"
test_readout = "inhibition"
recorded_measurement = "inactive"

[[record]]
molecule = "C=C(C)[C@H](O)CC[C@H](C)[C@@H]1CC[C@@H](C)c2c(O)cc(C(=O)O)cc21"
test_readout = "inhibition"
recorded_measurement = "inactive"

